System: Mycobacterium tuberculosis (H37Rv)
protocol description: Growth in liquid media in presence of test compound
Assay type: cell-based
setup conditions: 50 mg/L
endpoint name: Growth in the presence of test compound, M. tuberculosis

molecule	result value
CC(N)C(=O)NC(CB1OC2CC3CC(C3(C)C)C2(C)O1)c1ccccc1 (stereo not shown)	+
CC1(C)C2CC3OB(CC(Cc4ccccc4)NC(=O)C(N)CCCCN)OC3(C)C1C2 (stereo not shown) [Compound 54]	+
NCCCC[C@H](N)C(=O)NC[C@@H](CCc1ccccc1)B(O)O	+
Cl.N[C@@H](Cc1ccccc1)C(=O)NC[C@@H](Cc1ccc(OC(F)(F)F)cc1)B(O)O	−

* * *

System: Mycobacterium tuberculosis (H37Rv)
protocol description: Growth in liquid media in presence of test compound
Assay type: cell-based
setup conditions: 5 mg/L
endpoint name: Growth in the presence of test compound, M. tuberculosis

compound	result value
CC1(C)C2CC3OB([C@H](CNC(=O)[C@@H](N)Cc4ccccc4)Cc4ccccc4)O[C@@]3(C)C1C2 (stereo partly shown)	+
CC1(C)C2CC3OB([C@H](CCc4ccccc4)CNC(=O)[C@@H](N)CCCCN)O[C@]3(C)C1C2 (stereo partly shown)	+
CC1(C)C2CC3OB(C(CNC(=O)C(N)CCCCN)Cc4ccc(OC(F)(F)F)cc4)OC3(C)C1C2.Cl.Cl (stereo not shown) [Compound 53]	±
CC(N)C(=O)NC(CB1OC2CC3CC(C3(C)C)C2(C)O1)c1ccccc1 (stereo not shown)	+

* * *

Test system: Escherichia coli (ATCC 25922)
protocol description: Growth in liquid media in presence of test compound
Format: cell-based
setup conditions: 5 mg/L
Description: Test organisms used were the bacterial strains Escherichia coli (ATCC 25922), Pseudomonas aeruginosa (ATCC 27853), Staphylococcus aureus (ATCC 25923), Streptococcus pyogenes (ATCC 19615), and Mycobacterium tuberculosis (H37Rv), and the yeast strain Candida albicans (ATCC 90028). […]
endpoint name: Growth in the presence of test compound, E. coli

molecule	result value
CC1(C)C2CC3OB(C[C@@H](Cc4ccccc4)NC(=O)[C@H](Cc4ccccc4)NC(=O)[C@@H](N)Cc4ccccc4)O[C@]3(C)C1C2.Cl (stereo partly drawn) [Compound 45]	+
C[C@H](N)C(=O)NC[C@@H](Cc1ccc(OC(F)(F)F)cc1)B1OC2CC3CC(C3(C)C)[C@@]2(C)O1.Cl (stereo partly drawn) [Compound 56]	+
CC1(C)C2CC3OB([C@@H](CNC(=O)[C@@H](N)CCCNC(=N)N)Cc4ccccc4)O[C@]3(C)C1C2 (stereo partly drawn) [Compound 11]	+
Cl.Cl.NCCCC[C@H](N)C(=O)NC[C@@H](Cc1ccc(F)cc1)B(O)O [Compound 46]	+
CC1(C)C2CC3OB([C@@H](CNC(=O)[C@H](N)Cc4ccccc4)Cc4ccccc4)O[C@]3(C)C1C2 (stereo partly drawn) [Compound 41]	+

Lookup: # get_value(readout= Growth in the presence of test compound, E. coli, system= Escherichia coli (ATCC 25922)) for CC1(C)C2CC3OB(C(CNC(=O)C(N)CCCCN)Cc4ccc(F)cc4)OC3(C)C1C2.Cl.Cl (stereo not drawn) [Compound 51]
Found: +

Lookup: Record lookup: for Escherichia coli (ATCC 25922), what Growth in the presence of test compound, E. coli belongs to CC(NC(=O)C(N)CCCCN)C(Cc1ccccc1)B1OC2CC3CC(C3(C)C)C2(C)O1 (stereo not drawn) [Compound 26] ?
Found: +

Lookup: Request - read-out Growth in the presence of test compound, E. coli | tested on Escherichia coli (ATCC 25922) | molecule CC1(C)C2CC3OB([C@H](CCc4ccccc4)CNC(=O)[C@H](N)CCCCN)O[C@]3(C)C1C2 (stereo partly drawn) [Compound 20]
Found: +
